System: SK-MEL-2
run-description: NCI tumour cell line growth inhibition, 48 h
Activity calls are given as the source filed them. Rule as the data show it: active = GI50 up to about 1.1 µM and inactive = higher.
Quick reference for GI50 among some compounds

# annotated cases, reported GI50 shown
compound	reported-measurement
COc1ccccc1/C=C1\CCC(Cc2ccccc2)(CN(C)C)C1=O (stereo not drawn)	6.53 µM (inactive)
COc1ccc(-c2nc3cc(C(F)(F)F)ccc3n2CC2CCCN3CCCCC23)cc1 (stereo not drawn)	15.5 µM (inactive)

// next item, GI50 requested
Query: Given the compound CCOC1(COP(=O)(OCc2ccccc2)OCc2ccccc2)COC(COP(=O)(OCc2ccccc2)OCc2ccccc2)(OCC)CO1 (stereo not drawn) , what is its reported GI50?
Result: > 100 µM (inactive)
